Where do these numbers come from? They come from ChEMBL document CHEMBL1132221.

I'd appreciate it if you could supply IC50 values for the items below.
Target: UniProt:P16116
Experiment: In vitro inhibitory activity against Aldose reductase 2 obtained from calf lenses
Dear colleague, please return just the value in µM, with no unit written.

Name the recorded IC50 of the item Cc1onc2c(=O)n(CCC(=O)O)nc(-c3ccc(Cl)cc3)c12 in your answer.
34.8

Name the recorded IC50 of the item Cc1c(-c2nc3cc(C(F)(F)F)ccc3s2)nc2c(O)n(CC(=O)O)nc(-c3ccccc3)c1-2 in your answer.
97.9

Name the recorded IC50 of the item CCC(C(=O)O)n1nc(-c2ccccc2)c2c(C)onc2c1=O (stereo not drawn) in your answer.
75

Name the recorded IC50 of the item CC(=O)c1c(-c2ccccc2)nn(CC(=O)O)c(=O)c1NCc1ccccc1 in your answer.
27.6

Name the recorded IC50 of the item Cc1onc2c(=O)n(CCC(=O)O)nc(-c3ccccc3)c12 in your answer.
65.2

Name the recorded IC50 of the item CC(=O)c1c(-c2ccccc2)nn(CC(=O)O)c(=O)c1NCCc1ccccc1 in your answer.
93.9

Name the recorded IC50 of the item Cc1nn(CC(=O)O)c(=O)c2noc(C)c12 in your answer.
42

Name the recorded IC50 of the item Cc1onc2c(=O)n(CC(=O)O)nc(-c3ccc(Cl)cc3)c12 in your answer.
3.72

Name the recorded IC50 of the item Cc1onc2c(=O)n(CCCC(=O)O)nc(-c3ccccc3)c12 in your answer.
20.2

Name the recorded IC50 of the item Cc1onc2c(=O)n(C(C)C(=O)O)nc(-c3ccccc3)c12 (stereo not drawn) in your answer.
76.8

Name the recorded IC50 of the item Cc1onc2c(=O)n(CC(=O)O)nc(-c3ccc([N+](=O)[O-])cc3)c12 in your answer.
4.76

Name the recorded IC50 of the item Cc1nn(CCCC(=O)O)c(=O)c2noc(C)c12 in your answer.
65.1

Name the recorded IC50 of the item CC(=O)c1c(-c2ccccc2)nn(CC(=O)O)c(=O)c1NCc1ccc(Cl)cc1 in your answer.
36.5

* * *

Biological target: Aldo-keto reductase family 1 member B1 (Bos taurus, UniProt P16116)
Experiment: In vitro inhibitory activity against aldose reductase (ALR2) obtained from calf lenses
readout: IC50
Kindly write the number and append the unit.

// fetch IC50 for CC(=O)c1c(-c2ccccc2)nn(CC(=O)O)c(=O)c1N ; system: Aldo-keto reductase family 1 member B1 (Bos taurus, UniProt P16116)
154 µM

// fetch IC50 for CC(=O)c1c(C)nn(CC(=O)O)c(=O)c1N ; system: Aldo-keto reductase family 1 member B1 (Bos taurus, UniProt P16116)
210 µM

// fetch IC50 for Cc1onc2c(=O)n(C/C=C/C(=O)O)nc(-c3ccccc3)c12 ; system: Aldo-keto reductase family 1 member B1 (Bos taurus, UniProt P16116)
107 µM

* * *

I'd appreciate it if you could supply pIC50 values for the items below.
Molecular target: Aldo-keto reductase family 1 member B1 (Bos taurus)
Assay: In vitro inhibitory activity against Aldose reductase 2 obtained from calf lenses
The meaning of pIC50 here: minus log10 of the concentration in molar units.

Name the recorded pIC50 of the item O=C(O)Cn1nc(-c2ccccc2)cc(NCc2ccccc2)c1=O in your answer.
4.31

Name the recorded pIC50 of the item Cc1onc2c(=O)n(CCCCC(=O)O)nc(-c3ccccc3)c12 in your answer.
4.55

Name the recorded pIC50 of the item CCCC(C(=O)O)n1nc(-c2ccccc2)c2c(C)onc2c1=O (stereo unspecified) in your answer.
3.94

Name the recorded pIC50 of the item CC(=O)c1c(-c2ccccc2)nn(CCCC(=O)O)c(=O)c1N in your answer.
4.43

Name the recorded pIC50 of the item O=C(O)Cn1nc(-c2ccccc2)cc(NCCc2ccccc2)c1=O in your answer.
4.16

Name the recorded pIC50 of the item Cc1onc2c(=O)n(CCCC(=O)O)nc(-c3ccc(Cl)cc3)c12 in your answer.
4.98

Name the recorded pIC50 of the item CC(=O)c1c(-c2ccccc2)nn(CC(=O)O)c(=O)c1Nc1ccc(Br)cc1 in your answer.
3.88

Name the recorded pIC50 of the item O=C(O)Cn1nc(-c2ccccc2)cc(NCCc2ccccn2)c1=O in your answer.
3.80

Name the recorded pIC50 of the item Cc1onc2c(=O)n(CC(=O)O)nc(-c3ccccc3)c12 in your answer.
4.90

Name the recorded pIC50 of the item Cc1onc2c(=O)n(CC(=O)O)nc(-c3ccccc3[N+](=O)[O-])c12 in your answer.
5.22

Name the recorded pIC50 of the item C[c-]1[o+]nc2c(=O)n(CC(=O)O)nc(-c3cccc([N+](=O)[O-])c3)c21 in your answer.
5.35
